- measuredOn: G protein-activated inward rectifier potassium channel 2 (Homo sapiens) + G protein-activated inward rectifier potassium channel 1 (Homo sapiens) (UniProt P48051+P48549)
- Sequence (P48051 whole entry, looked up): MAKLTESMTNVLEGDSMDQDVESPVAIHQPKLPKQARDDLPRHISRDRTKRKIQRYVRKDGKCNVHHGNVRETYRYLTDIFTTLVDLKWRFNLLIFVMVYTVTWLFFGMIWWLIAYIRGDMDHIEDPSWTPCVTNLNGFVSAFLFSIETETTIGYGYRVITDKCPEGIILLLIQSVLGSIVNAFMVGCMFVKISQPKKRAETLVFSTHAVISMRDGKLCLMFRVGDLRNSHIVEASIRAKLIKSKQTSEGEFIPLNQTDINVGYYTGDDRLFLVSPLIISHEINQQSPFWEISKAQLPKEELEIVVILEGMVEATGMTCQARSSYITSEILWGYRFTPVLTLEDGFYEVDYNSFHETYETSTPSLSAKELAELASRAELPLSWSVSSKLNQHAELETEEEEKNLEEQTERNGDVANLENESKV
- Sequence (P48549 whole entry, looked up): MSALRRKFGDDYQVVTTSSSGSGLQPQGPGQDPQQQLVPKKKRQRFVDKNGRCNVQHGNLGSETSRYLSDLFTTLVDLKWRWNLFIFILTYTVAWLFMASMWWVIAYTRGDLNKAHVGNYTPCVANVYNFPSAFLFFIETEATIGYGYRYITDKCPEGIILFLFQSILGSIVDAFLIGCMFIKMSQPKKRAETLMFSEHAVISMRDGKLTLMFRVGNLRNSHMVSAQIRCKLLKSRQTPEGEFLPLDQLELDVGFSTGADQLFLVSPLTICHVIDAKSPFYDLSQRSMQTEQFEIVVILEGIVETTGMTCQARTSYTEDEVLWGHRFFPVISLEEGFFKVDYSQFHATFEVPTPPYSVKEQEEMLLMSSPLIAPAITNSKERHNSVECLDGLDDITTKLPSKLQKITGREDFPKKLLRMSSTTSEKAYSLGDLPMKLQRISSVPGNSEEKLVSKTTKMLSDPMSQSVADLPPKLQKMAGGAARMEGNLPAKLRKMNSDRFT
- experimentSummary: GIRK1/2 thallium flux modulators, retest, confirmation, cell-based, HEK293 rmGlu8/hGIRK1/2, FluoZin-2 (AID 623911)
- experimentalParameters: HEK293 rmGlu8/hGIRK1/2, thallium flux FluoZin-2; actives lie on both sides; glutamate co-added at its EC20 level
In all, about 2,100 compounds went through this assay and about 770 (37%) were called active. The list shows a part of the results.
quantityKind: manual score

{"compound": "CC1=NCCN1S(=O)(=O)c1cc(Cl)ccc1Cl", "measuredValue": 0}
{"compound": "Cc1ccccc1N=Nc1ccc(O)c2ncccc12", "measuredValue": 0}
{"compound": "Cc1ccc(S(=O)(=O)n2cnc3cc([N+](=O)[O-])ccc32)cc1C", "measuredValue": 0}
{"compound": "CCOC(=O)c1cc2n(c1N)-c1ccccc1C2=O", "measuredValue": 3}
{"compound": "CCCCN(C)C1=CC2=CC(=C(C#N)C#N)CCC2CC1 (configuration not stated)", "measuredValue": 3}
{"compound": "CCOC(=O)c1ccccc1Nc1cn(C(C)=O)c2ccccc12", "measuredValue": -0.5}
{"compound": "Cc1cc2[nH]c(=O)c3ccccc3n2n1", "measuredValue": 0}

###

- measuredOn: G protein-activated inward rectifier potassium channel 2 (Homo sapiens) + G protein-activated inward rectifier potassium channel 1 (Homo sapiens) (UniProt P48051+P48549)
- experimentSummary: GIRK1/2 thallium flux modulators, retest, confirmation, cell-based, HEK293 rmGlu8/hGIRK1/2, FluoZin-2 (AID 623911)
- experimentalParameters: HEK293 rmGlu8/hGIRK1/2, thallium flux FluoZin-2; actives lie on both sides; glutamate co-added at its EC20 level
Screen size: about 2,100 compounds; about 770 (37%) were called active. This is one part of the list.
quantityKind: manual score

{"compound": "CC(C)(C)C1CCC2(CC1)Nc1cccc3cccc(c13)N2", "measuredValue": 0}
{"compound": "CCN(CC)c1ccc(NC(=O)c2nc3nc(C)cc(C(F)F)n3n2)cc1", "measuredValue": 0}
{"compound": "Cc1c(C(=O)O)sc2nc3n(c(=O)c12)CCC(C)CC3 (stereo unspecified)", "measuredValue": 0}
{"compound": "S=C1NC(c2ccccc2)=NCN1c1ccc(Cl)cc1", "measuredValue": 0.5}
{"compound": "O=C(NC(=S)Nc1ccccc1N1CCCCC1)c1ccco1", "measuredValue": 0}
{"compound": "CCn1c(O)c(N=NC2=NC(=O)CS2)c2cc(C)ccc21", "measuredValue": 0}
{"compound": "CC(Oc1ccc(Cl)cc1Cl)C(=O)NC(=S)N1CCc2ccccc21 (stereo unspecified)", "measuredValue": 1}
{"compound": "COc1ccc(CNC(=O)CSCc2ccccc2Cl)cc1", "measuredValue": 0}
{"compound": "CCCCN(CCCC)c1nc2ccccc2nc1C(C#N)C(=O)NCCCOC (stereo unspecified)", "measuredValue": 3}
{"compound": "O=C(NC(=S)Nc1ccc(N2CCCCC2)cc1)c1ccco1", "measuredValue": 1}
{"compound": "O=C(C1CCC(Cn2c(=S)[nH]c3ccccc3c2=O)CC1)N1CCN(c2ccccc2)CC1 (stereo unspecified)", "measuredValue": 0}
{"compound": "CCc1ccc(CNCCNCC(C)O)cc1 (stereo unspecified)", "measuredValue": 1}
{"compound": "CCOc1cc(-c2noc(-c3cccnc3)n2)ccc1OC", "measuredValue": 0}
{"compound": "O=c1c2cccnc2[nH]c(=S)n1Cc1ccccc1", "measuredValue": 0}
{"compound": "Cc1ccc(NC2CC(=O)N(CCc3ccccc3)C2=O)cc1 (stereo unspecified)", "measuredValue": 0}
{"compound": "COc1ccc(-c2nc(C#N)c(NCCCN(C)C)o2)cc1OC", "measuredValue": 0}
{"compound": "S=c1[nH]ccn1-c1cccc(Cl)c1", "measuredValue": 0}
{"compound": "O=C(NC(=S)N1CCN(c2ccc(C(F)(F)F)cc2[N+](=O)[O-])CC1)c1cccs1", "measuredValue": 1}
{"compound": "O=C(NC(=S)Nc1ccc(N2CCOCC2)cc1)c1ccco1", "measuredValue": 0}
{"compound": "CC(Nc1ccc(Br)cn1)c1cc(Cl)ccc1O (stereo unspecified)", "measuredValue": 0}
{"compound": "CC(C)CNC(=S)NC(=O)c1ccc([N+](=O)[O-])cc1", "measuredValue": 1}
{"compound": "CC1CCN(c2ccccc2NC(=S)NC(=O)c2ccco2)CC1", "measuredValue": 0}
{"compound": "Clc1ccc(Cl)c(OCc2cc(-c3ccccc3Cl)on2)c1", "measuredValue": 0}
{"compound": "O=C(NNC(=O)c1cc(-c2ccccc2)n(-c2ccccc2)n1)c1cccc([N+](=O)[O-])c1", "measuredValue": 0}
{"compound": "O=C(NC(=S)Nc1ccccc1N1CCOCC1)c1ccco1", "measuredValue": 1}
{"compound": "S=C1Nc2cc(Cl)ccc2Sc2ccccc21", "measuredValue": 0.5}
{"compound": "O=C(COc1ccccc1Cl)NC(=S)N1CCc2ccccc21", "measuredValue": 1}
{"compound": "CCOC(=O)/C(C#N)=C/C1=C(N2CCCC2)CC(C)(C)OC1", "measuredValue": 0}
{"compound": "S=C1CCSc2ccc(Cl)cc2N1", "measuredValue": 1}
{"compound": "O=C(COc1ccccc1)NC(=S)N1CCc2ccccc21", "measuredValue": 1}
{"compound": "CCC1(C)Cc2c(sc3[nH]c(=S)n(Cc4ccccc4)c(=O)c23)CO1 (stereo unspecified)", "measuredValue": 1}
{"compound": "CCC1(C)Cc2c(sc3c2c(=O)n(C)c2nnc(SCc4ccc5c(c4)OCO5)n32)CO1 (stereo unspecified)", "measuredValue": 0}
{"compound": "O=C(COc1ccc(Br)cc1Cl)NC(=S)N1CCc2ccccc21", "measuredValue": 0.5}
{"compound": "O=S(=O)(Nc1nc(-c2sccc2Cl)cs1)c1cc(Cl)ccc1Cl", "measuredValue": 0}
{"compound": "CCCn1c(=N)c(C(=O)NCc2ccc3c(c2)OCO3)cc2c(=O)n3cccc(C)c3nc21", "measuredValue": -1}
{"compound": "CC(C)OC(=O)/C(=C/c1cccnc1)NC(=O)c1ccccc1", "measuredValue": 0}
{"compound": "COC(=O)c1nc(NC(C)=O)n[nH]1", "measuredValue": 0}
{"compound": "Cc1nccn1CCc1nc(N)nc(N)n1", "measuredValue": 0}
{"compound": "CN(C1CCCCC1)S(=O)(=O)c1ccc(NC(=S)NC(=O)c2cccs2)cc1", "measuredValue": 0}
{"compound": "O=c1[nH]c(NCCO)nc2c1C1(CCCCC1)Cc1ccccc1-2", "measuredValue": 0}
{"compound": "O=C(NC(=S)Nc1ccc(N2CCCCC2)c(Cl)c1)c1cccs1", "measuredValue": 0}

###

- measuredOn: G protein-activated inward rectifier potassium channel 2 (Homo sapiens) + G protein-activated inward rectifier potassium channel 1 (Homo sapiens) (UniProt P48051+P48549)
- experimentSummary: GIRK1/2 thallium flux modulators, retest, confirmation, cell-based, HEK293 rmGlu8/hGIRK1/2, FluoZin-2 (AID 623911)
- experimentalParameters: HEK293 rmGlu8/hGIRK1/2, thallium flux FluoZin-2; actives lie on both sides; glutamate co-added at its EC20 level
The whole screen tested about 2,100 compounds, of which about 770 (37%) were called active.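 The calls were made as follows: active = by-eye trace score of 1 for enhancers or -1 for inhibitors, so actives lie on both sides (some results past the limit were not filed as active); inactive = score 0, or 3 fluorescent, or 4 baseline rise.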 The list shows a part of the results.
Outcomes: Y = active, N = inactive

{"smilesCode": "Fc1cccc2sc(Nc3nc4ccccc4s3)nc12", "class": "N"}
{"smilesCode": "Cc1cccc(S(=O)(=O)Nc2cccc3c2C(=O)c2ccccc2-3)c1", "class": "N"}
{"smilesCode": "CCNC(=S)Nc1scc(-c2ccccc2)c1C(=O)OCC", "class": "Y"}

###

- measuredOn: G protein-activated inward rectifier potassium channel 2 (Homo sapiens) + G protein-activated inward rectifier potassium channel 1 (Homo sapiens) (UniProt P48051+P48549)
- experimentSummary: GIRK1/2 thallium flux modulators, retest, confirmation, cell-based, HEK293 rmGlu8/hGIRK1/2, FluoZin-2 (AID 623911)
- experimentalParameters: HEK293 rmGlu8/hGIRK1/2, thallium flux FluoZin-2; actives lie on both sides; glutamate co-added at its EC20 level
In all, about 2,100 compounds went through this assay and about 770 (37%) were called active. The list shows a part of the results.
Mark YES only for manual score values smaller than 0; exact matches and larger values are NO.

{"compound": "CN(C)S(=O)(=O)c1cccc(NC(=S)Nc2cc(Cl)cc(Cl)c2)c1", "class": "NO"}
{"compound": "C/C(=N\\NC(=S)NC(C)C)c1ccc(Cl)s1", "class": "NO"}
{"compound": "O=C(Nc1nc(-c2ccccc2)c(-c2ccccc2)o1)c1ccc(F)cc1", "class": "NO"}
{"compound": "Cc1cc2c(cc1C)NC(c1c(C)n(C)n(-c3ccccc3)c1=O)C1=C(CC(C)(C)CC1=O)N2 (stereo unspecified)", "class": "NO"}
{"compound": "O=C(Nc1ccccc1)Nc1nccs1", "class": "NO"}
{"compound": "Cc1ncoc1C(=O)Nc1ccc(Oc2ccccc2)cc1", "class": "NO"}
{"compound": "COc1cccc(C(=O)Nc2nc(-c3ccccc3)c(-c3ccccc3)o2)c1", "class": "NO"}
{"compound": "Brc1ccccc1C1=Nn2c(nnc2-c2ccccc2)SC1", "class": "YES"}
{"compound": "Cc1ccc(C(=O)Nc2nc(-c3ccccc3)c(-c3ccccc3)o2)cc1", "class": "NO"}
{"compound": "CN(C)S(=O)(=O)c1cccc(NC(=S)Nc2ccc(Cl)cc2Cl)c1", "class": "NO"}
{"compound": "Oc1[nH]c2c(Cl)cc(Cl)cc2c1N=NC(=S)NCC1CCCO1 (stereo unspecified)", "class": "NO"}
{"compound": "CCCSc1nnc(Nc2ccccc2C)s1", "class": "NO"}
{"compound": "Cc1nc(C)c(C(=O)Nc2ccc(Oc3ccccc3)cc2)o1", "class": "NO"}
{"compound": "CCOC(=O)c1c(C)c(C(=O)N2CCc3ccccc3C2)c(C)n1CC", "class": "YES"}
{"compound": "C/C(=N\\NC(=S)NCCc1ccccc1)c1cccs1", "class": "NO"}
{"compound": "CC(C)Sc1nc2c(c(=O)[nH]1)C(c1cccs1)C1=C(CC(C)(C)CC1=O)N2 (stereo unspecified)", "class": "YES"}
{"compound": "Cc1ccc(C(=O)NNC(=S)NC(=O)c2ccc(Cl)cc2Cl)cc1", "class": "NO"}
{"compound": "S=C(Nc1ccccc1Cl)Nc1ccc(Cl)cc1Cl", "class": "NO"}
